# Tested on: 192522-019-R-J2-PDC complex tumor spheroid viability
# experimentDescription: Anticancer human tumor 192522-019-R-J2-PDC patient-derived colon adenocarcinoma cell line growth inhibition [POLQ]
# conditionSummary: second compound 10 µM; first compound 1 µM; stronger effect = lower value
metricName: viability, T/C
Remember to put the unit after the number in your answer.

// solved cases for viability, T/C follow
compound	metricName	obsValue
CC1COCCN1c1cc(-c2ccnn2C)c2ccnc(-c3ccn[nH]3)c2n1 (stereo unspecified) + COC1C(OC(N)=O)C(O)C(Oc2ccc3c(O)c(NC(=O)c4ccc(O)c(CC=C(C)C)c4)c(=O)oc3c2C)OC1(C)C	viability, T/C	32.3%
CC1COCCN1c1cc(C2(O)CC3CCC(C2)O3)c2cnn(-c3ccn[nH]3)c2n1 (stereo unspecified) + Cc1cccc(N(C)C(=O)C2C(O)CCN2c2nc(C)cc(C(F)(F)F)c2C#N)c1	viability, T/C	32.8%
O=C(Nc1ccc(O)c(NS(=O)(=O)c2ccc(F)cc2)c1)c1ccc(-c2ccccc2)cc1 + Nc1ccc(C#CCN(C(=O)Cc2ncc(C(F)(F)F)cc2C(F)(F)F)c2ccc(F)cc2)nn1	viability, T/C	107%
CNCc1ccc(-c2[nH]c3cc(F)cc4c3c2CCNC4=O)cc1 + Cc1cccc(N(C)C(=O)C2C(O)CCN2c2nc(C)cc(C(F)(F)F)c2C#N)c1	viability, T/C	107%
O=C(Nc1ccc(O)c(NS(=O)(=O)c2ccc(F)cc2)c1)c1ccc(-c2ccccc2)cc1 + COC1C(OC(N)=O)C(O)C(Oc2ccc3c(O)c(NC(=O)c4ccc(O)c(CC=C(C)C)c4)c(=O)oc3c2C)OC1(C)C	viability, T/C	97.6%
COc1cc(C2c3cc4c(cc3C(OC3OC5COC(C)OC5C(O)C3O)C3COC(=O)C23)OCO4)cc(OC)c1O (stereo unspecified) + Cc1cccc(N(C)C(=O)C2C(O)CCN2c2nc(C)cc(C(F)(F)F)c2C#N)c1	viability, T/C	91.6%
C=CC(=O)N1CCN(c2nc(=O)n(-c3c(C)ccnc3C(C)C)c3nc(-c4c(O)cccc4F)c(F)cc23)C(C)C1 (stereo unspecified) + Nc1ccc(C#CCN(C(=O)Cc2ncc(C(F)(F)F)cc2C(F)(F)F)c2ccc(F)cc2)nn1	viability, T/C	108%
COc1cccc2c1C(=O)c1c(O)c3c(c(O)c1C2=O)CC(O)(C(=O)CO)CC3OC1CC(N)C(O)C(C)O1 (stereo unspecified) + Nc1ccc(C#CCN(C(=O)Cc2ncc(C(F)(F)F)cc2C(F)(F)F)c2ccc(F)cc2)nn1	viability, T/C	71.5%
CC(C)n1c(=O)n(C)c2cnc3cc(F)c(-c4ccc(OCCCN5CCCCC5)nc4)cc3c21 + COC1C(OC(N)=O)C(O)C(Oc2ccc3c(O)c(NC(=O)c4ccc(O)c(CC=C(C)C)c4)c(=O)oc3c2C)OC1(C)C	viability, T/C	120%
CC1COCCN1c1cc(C2(S(C)(=N)=O)CC2)nc(-c2ccnc3[nH]ccc23)n1 (stereo unspecified) + Cc1cccc(N(C)C(=O)C2C(O)CCN2c2nc(C)cc(C(F)(F)F)c2C#N)c1	viability, T/C	98.9%

As a next step, examine the compound that follows.
Ask: Specify viability, T/C for CCc1c2c(nc3ccc(O)cc13)-c1cc3c(c(=O)n1C2)COC(=O)[C@]3(O)CC + Nc1ccc(C#CCN(C(=O)Cc2ncc(C(F)(F)F)cc2C(F)(F)F)c2ccc(F)cc2)nn1 and stop.
Result: 34.4%

---

# Test system: 192522-019-R-J2-PDC complex tumor spheroid viability
# experimentDescription: Anticancer human tumor 192522-019-R-J2-PDC cell line growth inhibition [POLQ];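 note: spheroids exposed to drugs for seven days before reading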;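 for viability, T/C: 100% = DMSO vehicle control viability in luminescence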
# conditionSummary: second compound 1 µM; first compound 0.00316 µM; stronger effect = lower value
Entries annotated with measured viability, T/C
Remember to put the unit after the number in your answer.

molecule	experimentalSystem	viability, T/C
CCc1c2c(nc3ccc(O)cc13)-c1cc3c(c(=O)n1C2)COC(=O)[C@]3(O)CC + Nc1ccc(C#CCN(C(=O)Cc2ncc(C(F)(F)F)cc2C(F)(F)F)c2ccc(F)cc2)nn1	192522-019-R-J2-PDC complex tumor spheroid viability	103%
CC[C@@]1(O)C(=O)OCc2c1cc1n(c2=O)Cc2cc3c(CN(C)C)c(O)ccc3nc2-1 + Nc1ccc(C#CCN(C(=O)Cc2ncc(C(F)(F)F)cc2C(F)(F)F)c2ccc(F)cc2)nn1	192522-019-R-J2-PDC complex tumor spheroid viability	106%
CCc1c2c(nc3ccc(O)cc13)-c1cc3c(c(=O)n1C2)COC(=O)[C@]3(O)CC + COC1C(OC(N)=O)C(O)C(Oc2ccc3c(O)c(NC(=O)c4ccc(O)c(CC=C(C)C)c4)c(=O)oc3c2C)OC1(C)C	192522-019-R-J2-PDC complex tumor spheroid viability	82%
C=CCn1c(=O)c2cnc(Nc3ccc(N4CCN(C)CC4)cc3)nc2n1-c1cccc(C(C)(C)O)n1 + Nc1ccc(C#CCN(C(=O)Cc2ncc(C(F)(F)F)cc2C(F)(F)F)c2ccc(F)cc2)nn1	192522-019-R-J2-PDC complex tumor spheroid viability	103%

As a next step, examine the molecule that follows.
Ask: Specify viability, T/C for COc1cccc(OCCCN)c1-c1cc(Nc2cnc(C#N)cn2)n[nH]1 + Nc1ccc(C#CCN(C(=O)Cc2ncc(C(F)(F)F)cc2C(F)(F)F)c2ccc(F)cc2)nn1 and stop.
Result: 96.8%

---

# System: 192522-019-R-J2-PDC complex tumor spheroid viability
# experimentDescription: Anticancer human tumor 192522-019-R-J2-PDC cell line growth inhibition [POLQ];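 note: spheroids exposed to drugs for seven days before reading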
# conditionSummary: curve of first compound; second compound 1 µM
metricName: IC50

// solved cases for IC50 follow
compound	IC50
C=CCn1c(=O)c2cnc(Nc3ccc(N4CCN(C)CC4)cc3)nc2n1-c1cccc(C(C)(C)O)n1 + Nc1ccc(C#CCN(C(=O)Cc2ncc(C(F)(F)F)cc2C(F)(F)F)c2ccc(F)cc2)nn1	778 nM
CC1COCCN1c1cc(C2(S(C)(=N)=O)CC2)nc(-c2ccnc3[nH]ccc23)n1 (stereo unspecified) + COC1C(OC(N)=O)C(O)C(Oc2ccc3c(O)c(NC(=O)c4ccc(O)c(CC=C(C)C)c4)c(=O)oc3c2C)OC1(C)C	5310 nM
O=c1[nH]cc(F)c(=O)[nH]1 + Cc1cccc(N(C)C(=O)C2C(O)CCN2c2nc(C)cc(C(F)(F)F)c2C#N)c1	> 10000 nM

Ask: Specify IC50 for CC1COCCN1c1cc(C2(O)CC3CCC(C2)O3)c2cnn(-c3ccn[nH]3)c2n1 (stereo unspecified) + Cc1cccc(N(C)C(=O)C2C(O)CCN2c2nc(C)cc(C(F)(F)F)c2C#N)c1 and stop.
Result: 467 nM

Ask: Specify IC50 for C=CCn1c(=O)c2cnc(Nc3ccc(N4CCN(C)CC4)cc3)nc2n1-c1cccc(C(C)(C)O)n1 + Cc1cccc(N(C)C(=O)C2C(O)CCN2c2nc(C)cc(C(F)(F)F)c2C#N)c1 and stop.
Result: > 1000 nM

Ask: Specify IC50 for O=C(Nc1ccc(O)c(NS(=O)(=O)c2ccc(F)cc2)c1)c1ccc(-c2ccccc2)cc1 + Cc1cccc(N(C)C(=O)C2C(O)CCN2c2nc(C)cc(C(F)(F)F)c2C#N)c1 and stop.
Result: > 10000 nM

---

Entries annotated with measured viability, T/C
# Test system: 192522-019-R-J2-PDC complex tumor spheroid viability
# experimentDescription: Anticancer human tumor 192522-019-R-J2-PDC cell line growth inhibition [POLQ];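 note: spheroids exposed to drugs for seven days before reading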;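 for viability, T/C: 100% = DMSO vehicle control viability in luminescence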
# conditionSummary: second compound 0.316 µM; first compound 0.1 µM; stronger effect = lower value
Report the figure in % without appending any unit label.

// solved cases for viability, T/C follow
compound	metricName	obsValue
C=CC(=O)N1CCN(c2nc(=O)n(-c3c(C)ccnc3C(C)C)c3nc(-c4c(O)cccc4F)c(F)cc23)C(C)C1 (stereo not drawn) + Cc1cccc(N(C)C(=O)C2C(O)CCN2c2nc(C)cc(C(F)(F)F)c2C#N)c1	viability, T/C	96.9
O=c1[nH]cc(F)c(=O)[nH]1 + Cc1cccc(N(C)C(=O)C2C(O)CCN2c2nc(C)cc(C(F)(F)F)c2C#N)c1	viability, T/C	95.9

As a next step, examine the compound that follows.
Ask: Specify viability, T/C for O=C(Nc1ccc(O)c(NS(=O)(=O)c2ccc(F)cc2)c1)c1ccc(-c2ccccc2)cc1 + Cc1cccc(N(C)C(=O)C2C(O)CCN2c2nc(C)cc(C(F)(F)F)c2C#N)c1 and stop.
Result: 96.4

---

# Test system: 192522-019-R-J2-PDC complex tumor spheroid viability
# experimentDescription: Anticancer human tumor 192522-019-R-J2-PDC cell line growth inhibition [POLQ];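 note: spheroids exposed to drugs for seven days before reading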;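 for viability, T/C: 100% = DMSO vehicle control viability in luminescence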
# conditionSummary: second compound 0.0316 µM; first compound 0.1 µM; stronger effect = lower value
# Method: Multicellular complex tumor spheroid response to Polymerase (POL) inhibitors (novobiocin, ART-558, RP6685) in combination with a variety of drugs and investigational agents in selected tumor cell lines The POL inhibitors (novobiocin, ART-558, and RP6685) were evaluated both individually and in combination with standard of care and investigational anticancer small molecules within a complex spheroid model of solid tumors. . […]
metricName: viability, T/C (%)
Report the figure in % without appending any unit label.

// solved cases for viability, T/C follow
molecule	obsValue
CC1COCCN1c1cc(-c2ccnn2C)c2ccnc(-c3ccn[nH]3)c2n1 (stereo not given) + COC1C(OC(N)=O)C(O)C(Oc2ccc3c(O)c(NC(=O)c4ccc(O)c(CC=C(C)C)c4)c(=O)oc3c2C)OC1(C)C	70.6
O=c1[nH]cc(F)c(=O)[nH]1 + COC1C(OC(N)=O)C(O)C(Oc2ccc3c(O)c(NC(=O)c4ccc(O)c(CC=C(C)C)c4)c(=O)oc3c2C)OC1(C)C	75.7
COc1cccc2c1C(=O)c1c(O)c3c(c(O)c1C2=O)CC(O)(C(=O)CO)CC3OC1CC(N)C(O)C(C)O1 (stereo not given) + Cc1cccc(N(C)C(=O)C2C(O)CCN2c2nc(C)cc(C(F)(F)F)c2C#N)c1	79.8

Ask: Provide viability, T/C, recorded with 192522-019-R-J2-PDC complex tumor spheroid viability, of COc1ccc([C@@H](O)c2cc(-c3ncnc4cc(N5CCOCC5)ccc34)c(F)cc2Cl)nn1 + COC1C(OC(N)=O)C(O)C(Oc2ccc3c(O)c(NC(=O)c4ccc(O)c(CC=C(C)C)c4)c(=O)oc3c2C)OC1(C)C
Result: 87.2

Ask: Provide viability, T/C, recorded with 192522-019-R-J2-PDC complex tumor spheroid viability, of CNCc1ccc(-c2[nH]c3cc(F)cc4c3c2CCNC4=O)cc1 + COC1C(OC(N)=O)C(O)C(Oc2ccc3c(O)c(NC(=O)c4ccc(O)c(CC=C(C)C)c4)c(=O)oc3c2C)OC1(C)C
Result: 90.5

Ask: Provide viability, T/C, recorded with 192522-019-R-J2-PDC complex tumor spheroid viability, of COc1cc(C2c3cc4c(cc3C(OC3OC5COC(C)OC5C(O)C3O)C3COC(=O)C23)OCO4)cc(OC)c1O (stereo not given) + Nc1ccc(C#CCN(C(=O)Cc2ncc(C(F)(F)F)cc2C(F)(F)F)c2ccc(F)cc2)nn1
Result: 98.2

Ask: Provide viability, T/C, recorded with 192522-019-R-J2-PDC complex tumor spheroid viability, of Cn1ncnc1[C@H]1c2n[nH]c(=O)c3cc(F)cc(c23)N[C@@H]1c1ccc(F)cc1 + COC1C(OC(N)=O)C(O)C(Oc2ccc3c(O)c(NC(=O)c4ccc(O)c(CC=C(C)C)c4)c(=O)oc3c2C)OC1(C)C
Result: 91.4

Ask: Provide viability, T/C, recorded with 192522-019-R-J2-PDC complex tumor spheroid viability, of CC1COCCN1c1cc(-c2ccnn2C)c2ccnc(-c3ccn[nH]3)c2n1 (stereo not given) + Nc1ccc(C#CCN(C(=O)Cc2ncc(C(F)(F)F)cc2C(F)(F)F)c2ccc(F)cc2)nn1
Result: 83.7
